The reported numbers originate from patent EP3388419A1.

Tested on: Gli1 protein
protocolNotes: Effect on Gli1 protein expression by Western blotting in SAG-stimulated NIH3T3 cells
Format: cell-based, murine
Set-up: key: +++: Gli1 protein level strongly reduced (almost abolished) at 24 and 48 h compared to DMSO control; ++: Gli1 protein level reduced (more than 50%) at 48 h compared to DMSO control; +: Gli1 protein level is weakly reduced (about 50%) at 48 h compared to DMSO control
measurementContext: Table 3, commercially available compounds; NIH3T3 cells stimulated with SAG (100nM), compound 1 µM, 24 or 48 h, compared to DMSO control

molecule	assayTarget	Effect on Gli1 protein
CCCC(=O)NC(c1ccccc1Cl)c1cc(Cl)c2cccnc2c1O (stereo not shown)	Gli1 protein	+
Clc1cc2c(c3ncccc13)OCN(CCCN1CCOCC1)C2	Gli1 protein	+
CCCC(=O)NC(c1ccc(C)cc1)c1cc(Cl)c2cccnc2c1O (stereo not shown)	Gli1 protein	+
CCCC(=O)NC(c1ccc(Cl)cc1Cl)c1cc(Cl)c2cccnc2c1O (stereo not shown)	Gli1 protein	+++
CCCC(=O)NC(c1ccc(Cl)cc1Cl)c1ccc2cccnc2c1O (stereo not shown)	Gli1 protein	+++
CCCC(=O)NC(c1ccc(N(CC)CC)cc1)c1cc(Cl)c2cccnc2c1O (stereo not shown)	Gli1 protein	+++
COc1ccc(C(NC(C)=O)c2cc(Cl)c3cccnc3c2O)cc1OC (stereo not shown)	Gli1 protein	+++
CCCCC(=O)NC(c1ccc(OC)c(OC)c1)c1ccc2cccnc2c1O (stereo not shown)	Gli1 protein	+++
CCCCC(=O)NC(c1ccc(C(C)C)cc1)c1cc(Cl)c2cccnc2c1O (stereo not shown)	Gli1 protein	+++

====

System: DAOY (medulloblastoma cell line)
protocolNotes: Cancer cell proliferation, MTT-based assay, DAOY
measurementContext: Homo sapiens, Table 3, commercially available compounds, 72 h, read-out: Effect on proliferation DAOY (IC50; nM)
Here the recorded IC50 is given for each entry.
measurementKind: IC50

molecule	measurementKind	recordedValue
COc1ccc(C(NC(=O)C(C)C)c2cc(Cl)c3cccnc3c2O)cc1OC (stereo not drawn)	IC50	300 to 1000 nM
CCCC(=O)NC(c1ccc(Cl)cc1Cl)c1cc(Cl)c2cccnc2c1O (stereo not drawn)	IC50	300 to 1000 nM
CCCC(=O)NC(c1ccc(Cl)cc1Cl)c1ccc2cccnc2c1O (stereo not drawn)	IC50	≤ 300 nM
CCCCC(=O)NC(c1ccc(OC)c(OC)c1)c1ccc2cccnc2c1O (stereo not drawn)	IC50	300 to 1000 nM
COc1ccc(C(NC(C)=O)c2cc(Cl)c3cccnc3c2O)cc1OC (stereo not drawn)	IC50	300 to 1000 nM
Clc1cc2c(c3ncccc13)OCN(CCC1=CCCCC1)C2	IC50	≤ 300 nM
CCCCN1COc2c(cc(Cl)c3cccnc23)C1	IC50	300 to 1000 nM
CCCC(=O)NC(c1ccc(C)cc1)c1cc(Cl)c2cccnc2c1O (stereo not drawn)	IC50	300 to 1000 nM
CCCC(=O)NC(c1ccc(N(CC)CC)cc1)c1cc(Cl)c2cccnc2c1O (stereo not drawn)	IC50	300 to 1000 nM

====

Tested on: DAOY (medulloblastoma cell line)
protocolNotes: Cancer cell proliferation, MTT-based assay, DAOY
measurementContext: Homo sapiens, Table 3, commercially available compounds, 72 h, read-out: Effect on proliferation DAOY (IC50; nM)
Recorded IC50 for the following compounds

compound	IC50
Clc1cc2c(c3ncccc13)OCN(CCc1ccccc1)C2	≤ 300 nM
CCCC(=O)NC(c1ccccc1Cl)c1cc(Cl)c2cccnc2c1O (stereo not shown)	300 to 1000 nM
Clc1cc2c(c3ncccc13)OCN(CCCN1CCOCC1)C2	≥ 1000 nM
CCCCC(=O)NC(c1ccc(C(C)C)cc1)c1cc(Cl)c2cccnc2c1O (stereo not shown)	≤ 300 nM
